System: HSV-1/L2
protocol notes: Suppression of virus-induced cytopathogenic effect (CPE), reference strain HSV-1/L2 in Vero E6 cells
settings: HSV-1/L2; Vero E6 cells
Catalogue of SI (CC50/IC50) readings, one per entry.

Reference set, count: 4
compound="CC1COc2c(ccc(F)c2F)N1C(=O)CCCCCNc1ncccn1 (racemic) [(RS)-5d]" quantity_name="SI (CC50/IC50)" result=1.7
compound="CC1COc2c(ccc(F)c2F)N1C(=O)CCCCCNc1cc(Cl)ncn1 (racemic) [(RS)-5c]" quantity_name="SI (CC50/IC50)" result=>2.0
compound="C[C@H]1COc2c(ccc(F)c2F)N1C(=O)CCCCCNc1ccnc(N)n1.O [(S)-5a]" quantity_name="SI (CC50/IC50)" result=3.7
compound="CC1COc2c(ccc(F)c2F)N1C(=O)CCCCCNc1cc(Cl)nc(N)n1 (racemic) [(RS)-5b]" quantity_name="SI (CC50/IC50)" result=3.7

Record C[C@@H]1COc2c(ccc(F)c2F)N1C(=O)CCCCCNc1ncnc2[nH]ccc12.C[C@@H]1COc2c(ccc(F)c2F)N1C(=O)CCCCCNc1ncnc2[nH]ccc12.O (racemic) [(RS)-5e] . Reported SI (CC50/IC50): <1

====

System: HSV-1/L2/R
protocol notes: microbe, parasite or virus in culture
settings: HSV-1/L2/R (acyclovir-resistant); Vero E6 cells
quantity name: SI (CC50/IC50)

compound="CC1COc2c(ccc(F)c2F)N1C(=O)CCCCCNc1ncccn1 (racemic) [(RS)-5d]" result=<2
compound="O=C(O)P(=O)(O)O [Foscarnet, sodium phosphonoformate hexahydrate, reference compound]" result=>4

Record NC(=O)c1ncn([C@@H]2O[C@H](CO)[C@@H](O)[C@H]2O)n1 [Ribavirin, reference compound] . Reported SI (CC50/IC50): >4

====

protocol notes: in vitro
settings: dog
Catalogue of CC50 readings, one per entry.
Express it in µM; write the number only.

Record CC1COc2c(ccc(F)c2F)N1C(=O)CCCCCNc1ncccn1 (racemic) [(RS)-5d] . Reported CC50: 257

Record C[C@H]1COc2c(ccc(F)c2F)N1C(=O)CCCCCNc1ccnc(N)n1.O [(S)-5a] . Reported CC50: 23

Record C[C@@H]1COc2c(ccc(F)c2F)N1C(=O)CCCCCNc1ccnc(N)n1.C[C@@H]1COc2c(ccc(F)c2F)N1C(=O)CCCCCNc1ccnc(N)n1.O.O.O (racemic) [(RS)-5a] . Reported CC50: 11

Record C[C@H]1COc2c(ccc(F)c2F)N1C(=O)CCCCCNc1ncnc2[nH]ccc12 [(S)-5e] . Reported CC50: 47

====

protocol notes: Cytotoxicity in Vero E6 cells (Trypan blue exclusion assay)
settings: African green monkey
Catalogue of CC50 readings, one per entry.

Reference set, count: 6
molecule="C[C@@H]1COc2c(ccc(F)c2F)N1C(=O)CCCCCNc1ccnc(N)n1.C[C@@H]1COc2c(ccc(F)c2F)N1C(=O)CCCCCNc1ccnc(N)n1.O.O.O (racemic) [(RS)-5a]" quantity_name=CC50 result="151 µM"
molecule="CC1COc2c(ccc(F)c2F)N1C(=O)CCCCCNc1cc(Cl)ncn1 (racemic) [(RS)-5c]" quantity_name=CC50 result="> 304 µM"
molecule="O=C(O)P(=O)(O)O [Foscarnet, sodium phosphonoformate hexahydrate, reference compound]" quantity_name=CC50 result="> 417 µM"
molecule="C[C@@H]1COc2c(ccc(F)c2F)N1C(=O)CCCCCNc1ncnc2[nH]ccc12.C[C@@H]1COc2c(ccc(F)c2F)N1C(=O)CCCCCNc1ncnc2[nH]ccc12.O (racemic) [(RS)-5e]" quantity_name=CC50 result="17.6 µM"
molecule="CC1COc2c(ccc(F)c2F)N1C(=O)CCCCCNc1ncccn1 (racemic) [(RS)-5d]" quantity_name=CC50 result="505 µM"
molecule="C[C@H]1COc2c(ccc(F)c2F)N1C(=O)CCCCCNc1ncnc2[nH]ccc12 [(S)-5e]" quantity_name=CC50 result="469 µM"

Record Nc1nc2c(ncn2COCCO)c(=O)[nH]1 [Acyclovir, reference compound] . Reported CC50: > 444 µM

====

Catalogue of CC50 readings, one per entry.
protocol notes: Cytotoxicity in Vero E6 cells (Trypan blue exclusion assay)
settings: African green monkey
Express it in µM; write the number only.

molecule="C[C@H]1COc2c(ccc(F)c2F)N1C(=O)CCCCCNc1ccnc(N)n1.O [(S)-5a]" result=34.6

We now examine a further molecule.
Record CC1COc2c(ccc(F)c2F)N1C(=O)CCCCCNc1cc(Cl)nc(N)n1 (racemic) [(RS)-5b] . Reported CC50: 275

====

quantity name: melting point

Reference set, count: 6
molecule="CC1COc2c(ccc(F)c2F)N1C(=O)CCCCCNc1cc(Cl)nc(N)n1 (racemic) [(RS)-5b]" quantity_name="melting point" result="92 to 94 °C"
molecule="CC1COc2c(ccc(F)c2F)N1C(=O)CCCCCNc1cc(Cl)ncn1 (racemic) [(RS)-5c]" quantity_name="melting point" result="101 to 103 °C"
molecule="C[C@H]1COc2c(ccc(F)c2F)N1C(=O)CCCCCNc1ncnc2[nH]ccc12 [(S)-5e]" quantity_name="melting point" result="87 to 89 °C"
molecule="C[C@H]1COc2c(ccc(F)c2F)N1C(=O)CCCCCNc1ccnc(N)n1.O (hydrate or solvate) [(S)-5a]" quantity_name="melting point" result="78 to 80 °C"
molecule="C[C@@H]1COc2c(ccc(F)c2F)N1C(=O)CCCCCNc1ccnc(N)n1.C[C@@H]1COc2c(ccc(F)c2F)N1C(=O)CCCCCNc1ccnc(N)n1.O.O.O (racemic) (hydrate or solvate) [(RS)-5a]" quantity_name="melting point" result="59 to 60 °C"
molecule="C[C@@H]1COc2c(ccc(F)c2F)N1C(=O)CCCCCNc1ncnc2[nH]ccc12.C[C@@H]1COc2c(ccc(F)c2F)N1C(=O)CCCCCNc1ncnc2[nH]ccc12.O (racemic) (hydrate or solvate) [(RS)-5e]" quantity_name="melting point" result="86 to 88 °C"

We now examine a further molecule.
Record CC1COc2c(ccc(F)c2F)N1C(=O)CCCCCNc1ncccn1 (racemic) [(RS)-5d] . Reported melting point: 106 to 108 °C

====

System: HSV-1/L2/R
protocol notes: microbe, parasite or virus in culture
settings: HSV-1/L2/R (acyclovir-resistant); Vero E6 cells
quantity name: SI (CC50/IC50)
Answer as a number with no unit attached.

Reference set, count: 3
compound="C[C@@H]1COc2c(ccc(F)c2F)N1C(=O)CCCCCNc1ccnc(N)n1.C[C@@H]1COc2c(ccc(F)c2F)N1C(=O)CCCCCNc1ccnc(N)n1.O.O.O (racemic) [(RS)-5a]" assayed_system=HSV-1/L2/R result=8
compound="C[C@H]1COc2c(ccc(F)c2F)N1C(=O)CCCCCNc1ncnc2[nH]ccc12 [(S)-5e]" assayed_system=HSV-1/L2/R result=6
compound="Nc1nc2c(ncn2COCCO)c(=O)[nH]1 [Acyclovir, reference compound]" assayed_system=HSV-1/L2/R result=1

We now examine a further compound.
Record CC1COc2c(ccc(F)c2F)N1C(=O)CCCCCNc1cc(Cl)ncn1 (racemic) [(RS)-5c] . Reported SI (CC50/IC50): 2

====

Catalogue of CC50 readings, one per entry.
protocol notes: in vitro
settings: dog
Express it in µM; write the number only.

compound="CC1COc2c(ccc(F)c2F)N1C(=O)CCCCCNc1cc(Cl)nc(N)n1 (racemic) [(RS)-5b]" quantity_name=CC50 result=705
compound="CC1COc2c(ccc(F)c2F)N1C(=O)CCCCCNc1cc(Cl)ncn1 (racemic) [(RS)-5c]" quantity_name=CC50 result=9

We now examine a further compound.
Record C[C@@H]1COc2c(ccc(F)c2F)N1C(=O)CCCCCNc1ncnc2[nH]ccc12.C[C@@H]1COc2c(ccc(F)c2F)N1C(=O)CCCCCNc1ncnc2[nH]ccc12.O (racemic) [(RS)-5e] . Reported CC50: 86

====

Catalogue of SI (CC50/IC50) readings, one per entry.
Tested on: HSV-1/L2/R
protocol notes: microbe, parasite or virus in culture
settings: HSV-1/L2/R (acyclovir-resistant); Vero E6 cells

Reference set, count: 2
compound="CC1COc2c(ccc(F)c2F)N1C(=O)CCCCCNc1cc(Cl)nc(N)n1 (racemic) [(RS)-5b]" quantity_name="SI (CC50/IC50)" result=<4
compound="C[C@@H]1COc2c(ccc(F)c2F)N1C(=O)CCCCCNc1ncnc2[nH]ccc12.C[C@@H]1COc2c(ccc(F)c2F)N1C(=O)CCCCCNc1ncnc2[nH]ccc12.O (racemic) [(RS)-5e]" quantity_name="SI (CC50/IC50)" result=<1

Record C[C@H]1COc2c(ccc(F)c2F)N1C(=O)CCCCCNc1ccnc(N)n1.O [(S)-5a] . Reported SI (CC50/IC50): <4
